Record form. Attribute: pEC50. Fill in for each entry.
target: mouse TGR5 receptor (Mus musculus); construct: host or cells: HEK293-EBNA (293 c18, ATCC CRL10852); assay: Mouse TGR5 luminescent cAMP production assay (HEK293-EBNA cells, DiscoveRx cAMP XS+ kit); format: cell-based; settings: HEK293-EBNA cells overexpressing mouse TGR5, luminescent cAMP assay; read-out: Mouse TGR5 Lum. cAMP Activity (EC50)
Sequence (Q80SS6 whole entry): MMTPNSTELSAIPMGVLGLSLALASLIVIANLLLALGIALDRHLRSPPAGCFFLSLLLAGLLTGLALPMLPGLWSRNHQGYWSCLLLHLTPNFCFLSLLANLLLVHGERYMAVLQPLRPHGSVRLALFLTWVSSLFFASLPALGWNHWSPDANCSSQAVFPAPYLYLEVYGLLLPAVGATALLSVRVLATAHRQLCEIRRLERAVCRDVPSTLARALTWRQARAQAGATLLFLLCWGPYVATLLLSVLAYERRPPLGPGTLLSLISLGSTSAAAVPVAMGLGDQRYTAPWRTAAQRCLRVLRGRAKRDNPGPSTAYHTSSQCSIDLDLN
pEC50: −log10 of the molar value. Where a name gives a salt, the structure may show the parent alone.

# input compound: N#Cc1ccc(CCNC(=O)[C@@H]2CCCN2c2cc(-c3ccc4[nH]ccc4c3)nc(C(F)(F)F)n2)cc1 [Compound 157] ; wanted: its pEC50
> 7.00

Now the compound O=C(NCCc1ccc(C(F)(F)F)cc1)[C@@H]1CCCN(c2cc(N3CCC(CO)CC3)nc(C(F)(F)F)n2)C1 [Compound 329]
> 7.00

Now the compound Cc1ccc(-c2cc(N3CCC[C@H]3C(=O)NCCc3ccc(C#N)cc3)nc(C(F)(F)F)n2)s1 [Compound 170]
6.00 to 7.00

Now the compound CC(C)(C)OC(=O)N1CCC(Nc2cc(N3CCC[C@H]3C(=O)NCCc3ccc(C#N)cc3)nc(C(F)(F)F)n2)CC1 [Compound 15]
> 7.00

Now the compound CC(=O)N1CCC(Nc2cc(N3CCC[C@H]3C(=O)NCCc3ccc(C#N)cc3)nc(C(F)(F)F)n2)CC1 [Compound 53]
> 7.00

Now the compound CC(C)(C)OC(=O)N1CCC(Oc2cc(N3CC[C@H]3C(=O)NCCc3ccc(C#N)cc3)nc(C(F)(F)F)n2)CC1 [Compound 243]
6.00 to 7.00

Now the compound COc1ccc(-c2cc(N3CCC[C@H]3C(=O)NCCc3ccc(C#N)cc3)nc(C(F)(F)F)n2)cc1 [Compound 148]
> 7.00

Now the compound N#Cc1ccc(CCNC(=O)[C@@H]2CCN2c2cc(N3CCC(CCO)CC3)nc(C(F)(F)F)n2)cc1 [Compound 223]
> 7.00

Now the compound CNC(=O)c1cc(-c2cc(N3CCC[C@H]3C(=O)NCCc3ccc(C#N)cc3)nc(C(F)(F)F)n2)cs1 [Compound 179]
4.52 to 6.00

Now the compound CC(C)(C)OC(=O)NCCC1CCN(c2cc(N3CCC[C@H]3C(=O)NCCc3ccc(C#N)cc3)nc(C(F)(F)F)n2)CC1 [Compound 18]
6.00 to 7.00

Now the compound Cc1noc(C)c1-c1cc(N2CCC[C@H]2C(=O)NCCc2ccc(C#N)cc2)nc(C(F)(F)F)n1 [Compound 156]
4.52 to 6.00

Now the compound CCCCCCc1ccc(-c2cc(N3CCC[C@H]3C(=O)NCCc3ccc(C#N)cc3)nc(C(F)(F)F)n2)s1 [Compound 139]
4.52 to 6.00

Now the compound CC(C)(C)OC(=O)N1CCC(Oc2cc(N3CCC[C@H]3C(=O)NCCc3ccc(C#N)cc3)nc(C(F)(F)F)n2)CC1 [Compound 45]
> 7.00

Now the compound N#Cc1ccc(CCNC(=O)[C@@H]2CCCN2c2cc(Oc3ccccc3)nc(C(F)(F)F)n2)cc1 [Compound 43]
6.00 to 7.00

Now the compound CC(=O)N(C)CC1CCN(c2cc(N3CCC[C@H]3C(=O)NCCc3ccc(C#N)cc3)nc(C(F)(F)F)n2)CC1 [Compound 54]
> 7.00

Now the compound N#Cc1ccc(CCNC(=O)[C@@H]2CCCN2c2cc(-c3ccccc3)nc(C(F)(F)F)n2)cc1 [Compound 144]
6.00 to 7.00

Now the compound N#Cc1ccc(CCNC(=O)[C@@H]2CCN2c2cc(N3CCC(CN)CC3)nc(C(F)(F)F)n2)cc1 [Compound 245, hydrochloride]
6.00 to 7.00

Now the compound Cn1ccc2cc(-c3cc(N4CCC[C@H]4C(=O)NCCc4ccc(C#N)cc4)nc(C(F)(F)F)n3)ccc21 [Compound 169]
6.00 to 7.00

Now the compound CNc1cc(N2CCC[C@@H](C(=O)NCCc3ccc(C(F)(F)F)cc3)C2)nc(C(F)(F)F)n1 [Compound 321]
6.00 to 7.00

Now the compound N#Cc1ccc(CCNC(=O)C2CCN2c2cc(N3CCC(CO)CC3)nc(C(F)(F)F)n2)cc1 (centres unmarked) [Compound 241]
> 7.00
